Origin of the recorded values: PubChem BioAssay (NCI)

# Test system: MDA-MB-468 breast
# test details: NCI-60 one-dose screen, 48 h (100 = growth as untreated, 0 = no growth, -100 = all killed)
# cond: 10 µM unless noted
# Method: Growth inhibition of the MDA-MB-468 human Breast tumor cell line is measured as a screen for anti-cancer activity. Cells are grown in 96 well plates and exposed to the test compound for 48 hours. Compounds are tested at a single concentration, which is 10^-5 M for most compounds. The reported endpoint is percent growth (GI% or GIPRCNT), where numbers from 0 - 100% represent growth inhibition, and numbers from -100% - 0 represent cell death. […]
About 83,000 compounds went through this panel and 20% of them were active in at least one assay; those are over-represented in the sample as a whole.
Output fulfilled for growth not less than 60%; output not fulfilled otherwise.

Prompt: Is growth for Clc1ccc2nc(-c3ccc(-c4ccc(/C=N/NC5=NCCN5)cc4)s3)cn2c1 at or above 60%?
Response: fulfilled

Prompt: Is growth for CCOc1ccc(C(=O)O)cc1 at or above 60%?
Response: fulfilled

Prompt: Is growth for CN(C)c1ccc(/C=C/C(=O)c2ccc(NC(N)=O)cc2)cc1 at or above 60%?
Response: fulfilled

Prompt: Is growth for O=C1CC(c2ccc3c(c2)OCO3)c2ncn(-c3ccc(Cl)cc3)c2N1 (stereo unspecified) at or above 60%?
Response: not fulfilled

Prompt: Is growth for Cc1ccc2c3c(c(=O)[nH]c2c1)C1(C(C#N)=C(N)O3)c2cc(Br)ccc2-c2ccc(Br)cc21 at or above 60%?
Response: not fulfilled
